target: rat P2X7 (Rattus norvegicus (Rat)); assay: Ca2+ flux (FLIPR) in 1321N1 cells expressing recombinant rat P2X7; format: cell-based; details: 1321N1 cells, recombinant rat P2X7, 250 μM BzATP;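 further: Calcium-4 dye fluorescence change read 180 s after agonist addition, with cells preincubated 30 min with compound and dye in 96-well plates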
Sequence (Q64663 whole entry): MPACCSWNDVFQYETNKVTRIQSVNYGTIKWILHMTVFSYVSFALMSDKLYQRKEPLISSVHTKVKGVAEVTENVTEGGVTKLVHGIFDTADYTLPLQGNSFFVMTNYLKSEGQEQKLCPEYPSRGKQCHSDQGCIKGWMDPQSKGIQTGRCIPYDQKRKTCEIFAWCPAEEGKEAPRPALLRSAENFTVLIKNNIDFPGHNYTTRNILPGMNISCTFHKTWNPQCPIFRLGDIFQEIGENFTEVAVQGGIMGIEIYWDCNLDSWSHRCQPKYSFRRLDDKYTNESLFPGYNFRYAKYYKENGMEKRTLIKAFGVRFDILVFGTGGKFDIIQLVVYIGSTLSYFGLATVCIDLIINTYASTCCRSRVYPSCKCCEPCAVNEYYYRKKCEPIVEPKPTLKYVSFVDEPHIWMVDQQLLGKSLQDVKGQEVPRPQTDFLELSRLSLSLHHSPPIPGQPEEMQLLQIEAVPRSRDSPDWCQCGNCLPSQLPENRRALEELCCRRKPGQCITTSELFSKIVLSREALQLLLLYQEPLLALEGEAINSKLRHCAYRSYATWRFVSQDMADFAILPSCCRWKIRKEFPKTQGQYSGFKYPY
So I've got a bunch of compounds here, and I need their log10 IC50 values.
Scale: decimal log of IC50, IC50 in nM.

See these solved cases before continuing.
COMPOUND	log10 IC50
CC1c2ncn(-c3ccc(F)cn3)c2CCN1C(=O)c1cccc(C(F)(F)F)c1F (stereo not drawn) [Example 262]	3.54
CCOC(=O)C1c2ncn(-c3cnccn3)c2CCN1C(=O)c1cccc(C(F)(F)F)c1Cl (stereo not drawn) [Example 28]	1.56
Cc1c(C(=O)N2CCc3c(nnn3-c3ncccn3)C2)cccc1C(F)(F)F [Example 281]	2.54
O=C(c1cccc(C(F)(F)F)c1Cl)N1CCc2c(nnn2-c2ccn[nH]2)C1 [Example 68]	2.32
Cc1cc(-n2nnc3c2CCN(C(=O)c2ccnc(C(F)(F)F)c2Cl)C3C)ncn1 (stereo not drawn) [Example 403]	4.10

Your task in this section: give log10 IC50 for each listed record.
1. CN(C)C(=O)C1c2ncn(-c3ccccn3)c2CCN1C(=O)c1cccc(C(F)(F)F)c1Cl (stereo not drawn) [Example 34]
2. CC1c2nnn(-c3cccc(C(F)(F)F)n3)c2CCN1C(=O)c1cccc(C(F)(F)F)c1Cl (stereo not drawn) [Example 378]
3. Cc1cc(-n2nnc3c2CCN(C(=O)c2ccnc(C(F)(F)F)c2Cl)[C@H]3C)ncc1F (single isomer, unassigned) [Example 372]
4. O=C(c1cccc(Cl)c1Cl)N1CCc2c(nnn2-c2ncccn2)C1 [Example 67]
5. C[C@H]1Cc2c(nnn2-c2ccn[nH]2)CN1C(=O)c1cccc(C(F)(F)F)c1F (single isomer, unassigned) [Example 349]
6. Cc1cc(-n2nnc3c2CCN(C(=O)c2ccnc(C(F)(F)F)c2F)C3C)ncc1F (stereo not drawn) [Example 367]
7. O=C(c1cccc(C(F)(F)F)c1Cl)N1CCc2c(nnn2-c2ccccn2)C1 [Example 63]
8. CCOC(=O)C1c2ncn(-c3ccccc3)c2CCN1C(=O)c1cccc(C(F)(F)F)c1Cl (stereo not drawn) [Example 26]

1. 2.45
2. 2.14
3. 3.94
4. 1.72
5. 0.34
6. 3.33
7. 3.16
8. 1.74
